Cited source for all entries: PubChem BioAssay AID1259407

Test system: CCRIS mutagenicity, Ames/micronucleus/aberration tests
Test: CCRIS mutagenicity studies
Settings: Test System: AMES SALMONELLA TYPHIMURIUM; Strain/Indicator: TA100; Metabolic Activation: RAT, LIVER, S-9; Method: PREINCUBATION
Active and inactive are the calls of the source. How the calls were made is not given here.
Outcome codes: active, inactive

>>> category_label("O=S(=O)(O)c1ccc(O)c2ncccc12")
"active"
>>> category_label("CC(O)CN(CC(C)O)N=O (stereo not given)")
"inactive"
>>> category_label("Oc1cccc2cccnc12")
"active"
>>> category_label("CCOc1ccc(NC(C)=O)cc1")
"inactive"
>>> category_label("COc1cc(NC(C)CCCN)c2ncccc2c1 (stereo not given)")
"inactive"

====

Test system: CCRIS mutagenicity, Ames/micronucleus/aberration tests
Test: CCRIS mutagenicity studies
Details: Test System: AMES SALMONELLA TYPHIMURIUM; Strain/Indicator: TA100; Metabolic Activation: S-9
Active and inactive are the calls of the source. The rule behind the calls is not given here.
Outcome codes: active, inactive

>>> category_label("CCOC(=O)[C@H](CCc1ccccc1)N[C@@H](C)C(=O)N(CC(=O)O)C1Cc2ccccc2C1")
"inactive"
>>> category_label("[O-][n+]1c2ccccc2c2ccc3cccc4ccc1c2c34")
"active"
>>> category_label("O=c1oc2ccccc2c(O)c1C1CCCc2ccccc21 (centres undefined)")
"inactive"
>>> category_label("CC(=O)OCC(=O)[C@@]1(OC(C)=O)CC[C@H]2[C@@H]3C[C@@H](F)C4=CC(=O)C(Br)=C[C@]4(C)[C@@]3(F)[C@@H](O)C[C@@]21C")
"inactive"

====

System: CCRIS mutagenicity, Ames/micronucleus/aberration tests
Assay: CCRIS mutagenicity studies
Conditions: Test System: AMES SALMONELLA TYPHIMURIUM; Strain/Indicator: TA100; Metabolic Activation: RAT LIVER S-9, PHENOBARBITAL AND BETA-NAPHTHOFLAVONE; Method: PREINCUBATION
Active and inactive are the calls of the source. How the calls were made is not given here.
Outcome codes: label 1 (active), label 0 (inactive)

>>> category_label("C=C(C)C(=O)OCCN(C)C")
"label 0"
>>> category_label("CCOS(=O)(=O)OCC")
"label 1"
>>> category_label("O=Cc1ccccc1")
"label 0"
>>> category_label("Oc1ccccc1")
"label 0"
>>> category_label("C1CCCNCC1")
"label 0"
>>> category_label("O=S(=O)(O)c1cc(S(=O)(=O)O)c2cc(O)ccc2c1")
"label 0"
>>> category_label("CCC(C)c1ccccc1O (centres undefined)")
"label 0"
>>> category_label("O=C(O)c1ccccc1O")
"label 0"
>>> category_label("CCOC(=O)CC(C)=O")
"label 0"

====

System: CCRIS mutagenicity, Ames/micronucleus/aberration tests
Assay: CCRIS mutagenicity studies
Settings: Test System: AMES SALMONELLA TYPHIMURIUM; Strain/Indicator: TA1537; Metabolic Activation: NONE; Method: STANDARD PLATE
Source text: The CCRIS database contains chemical records with carcinogenicity, mutagenicity, tumor promotion, and tumor inhibition test results. It was developed by the National Cancer Institute (NCI). Data are derived from studies cited in primary journals, current awareness tools, NCI reports, and other sources. Test results have been reviewed by experts in carcinogenesis and mutagenesis. CCRIS provides historical information from the years 1985 - 2011. It is no longer updated. […]
Active and inactive are the calls of the source. How the calls were made is not given here. Where a SMILES comes first, the peptide text is derived from it. The star is where a group is joined. For = O=C*
Outcomes: active, inactive

>>> category_label("CN(C)P(=O)(N(C)C)N(C)C")
"inactive"
>>> category_label("NCC1CCC(C(=O)c2ccc(CCC(=O)O)cc2)CC1 (stereo unspecified)")
"inactive"
>>> category_label("CCN(CCCl)CCCNc1c2ccccc2nc2c1ccc1cccnc12")
"active"
>>> category_label("CCC1CCC(CCC(=O)[O-])C1.CCC1CCC(CCC(=O)[O-])C1.[Co+2] (stereo unspecified)")
"inactive"
>>> category_label("N#CC1=C(C#N)SCCS1")
"inactive"
>>> category_label("O=C(/C=N/O)Nc1ccccc1")
"inactive"
>>> category_label("CCOc1ccc(NC(C)=O)cc1")
"inactive"
>>> category_label("[Cl][Sn][Cl]")
"inactive"
>>> category_label("Nc1ccc(S(N)(=O)=O)cc1")
"inactive"
>>> category_label("CCOC(=O)c1cccc2cccnc12")
"inactive"
>>> category_label("CN(C)c1ccc(NS(=O)(=O)c2cccc3cccnc23)cc1")
"inactive"
>>> category_label("Nc1ccc(-c2ccc(N)c(O)c2)cc1O")
"inactive"
>>> category_label("CC(=O)C1(c2ccccc2)CCNCC1")
"inactive"
>>> category_label("O=C1c2ccccc2C(=O)c2c1cc(O)c(O)c2O")
"active"
>>> category_label("CCOC(=O)C(Cl)C(C)=O (stereo unspecified)")
"inactive"
>>> category_label("CSCC[C@H](NC=O)C(=O)N[C@@H](Cc1ccccc1)C(=O)O (For-Met-Phe-OH)")
"inactive"
>>> category_label("O=C(NC(=O)c1c(F)cccc1F)Nc1cc(Cl)c(Oc2ncc(C(F)(F)F)cc2Cl)c(Cl)c1")
"inactive"
>>> category_label("CCC[C@]1(O)CC[C@H]2[C@@H]3CC[C@H]4CC(=O)C[C@H](C)[C@]4(C)[C@H]3CC[C@@]21C")
"inactive"
>>> category_label("Nc1n[nH]c(=S)s1")
"inactive"
>>> category_label("CC1(C)[C@@H]2CC[C@@]1(C)C(=O)C2=O")
"inactive"
>>> category_label("O=C(O)c1cc(O)c2c(c1)C(=O)c1cccc(O)c1C2=O")
"inactive"
>>> category_label("CCCCOC(=O)CC(CC(=O)OCCCC)(OC(C)=O)C(=O)OCCCC")
"inactive"
>>> category_label("Cc1ccc(C(C)(C)C)c(O)c1C(O)c1ncc([N+](=O)[O-])n1C (stereo unspecified)")
"inactive"
>>> category_label("CC1(C)COC1=O")
"inactive"
>>> category_label("O=C1C[C@H](O)[C@@H]2c3c(ccc(O)c31)-c1ccc(O)c3c1[C@@]2(O)CCC3=O")
"active"
>>> category_label("N[C@@H](Cc1ccc(N(CCCl)CCCl)cc1)C(=O)O")
"inactive"

====

Tested on: CCRIS mutagenicity, Ames/micronucleus/aberration tests
Assay: CCRIS mutagenicity studies
Details: Test System: AMES SALMONELLA TYPHIMURIUM; Strain/Indicator: TA1535; Metabolic Activation: RAT, LIVER, S-9; Method: STANDARD PLATE
The source made the active and inactive calls. The rule behind the calls is not given here.
Classes used: active, inactive

>>> category_label("CNC(=O)CSP(=S)(OC)OC")
"inactive"
>>> category_label("O=P1(N(CCCl)CCCl)NCCCO1 (stereo not given)")
"active"
>>> category_label("NC1CCC(N)CC1 (stereo not given)")
"inactive"
>>> category_label("CCC1(CC(=O)O)OCCc2c1[nH]c1c(C(C)O)cccc21 (stereo not given)")
"inactive"
>>> category_label("Nc1ccccc1")
"inactive"

====

Tested on: CCRIS mutagenicity, Ames/micronucleus/aberration tests
Assay: CCRIS mutagenicity studies
Settings: Test System: AMES SALMONELLA TYPHIMURIUM; Strain/Indicator: TA100; Metabolic Activation: RAT, LIVER, S-9, AROCLOR 1254 (30%); Method: PREINCUBATION
Active and inactive are the calls of the source. No rule for the calls is given here.
property name: mutagenic call

>>> assay_value("FC(F)(F)c1cccc(Cl)c1")
"inactive; negative"
>>> assay_value("OC[P+](CO)(CO)CO")
"inactive; negative"
>>> assay_value("CN(C)c1nc(N(C)C)nc(N(C)C)n1")
"active; positive"
>>> assay_value("N[C@@H](Cc1ccc(N(CCCl)CCCl)cc1)C(=O)O")
"active; positive"
>>> assay_value("Cc1cc(=O)[nH]c(=S)[nH]1")
"inactive; negative"
>>> assay_value("C=CCNC(N)=O")
"inactive; negative"
>>> assay_value("C=CC(C)C#N (stereo not drawn)")
"inactive; negative"
>>> assay_value("Cc1ccc(N)cc1")
"inactive; negative"

====

Test system: CCRIS mutagenicity, Ames/micronucleus/aberration tests
Test: CCRIS mutagenicity studies
Conditions: Test System: AMES SALMONELLA TYPHIMURIUM; Strain/Indicator: TA1537; Metabolic Activation: RAT, LIVER, S-9, AROCLOR 1254; Method: STANDARD PLATE
Active and inactive are the calls of the source. How the calls were made is not given here.
Classes used: 1.0 = active, 0.0 = inactive

>>> category_label("C=O")
1.0
>>> category_label("O.[Al+3].[Al+3].[Na+].[Na+].[O-2].[O-2].[O-2].[O-2].[O-2].[O-2].[Si+4]")
0.0
>>> category_label("[Cl][Sn][Cl]")
0.0
>>> category_label("CC(=O)OCc1cocc2c(C=O)ccc1-2")
0.0
>>> category_label("O=C(O)c1cc(O)c2c(c1)C(=O)c1cccc(O)c1C2=O")
0.0
>>> category_label("CC(O)CN(C)c1ccc(NN)nn1 (configuration not stated)")
1.0
>>> category_label("CCC(=O)n1ncc(Cl)c(Cl)c1=O")
0.0
